molecular target: UniProt O75116; experiment: Kinase panel profiling at 1 µmol/L (MSA or IMAP), percentage inhibition; assay type: biochemical; settings: kinase ROCK2; 1 µmol/L single concentration; read-out: %-inhibition at 1 µmol/L, ROCK2
Sequence (O75116 whole entry): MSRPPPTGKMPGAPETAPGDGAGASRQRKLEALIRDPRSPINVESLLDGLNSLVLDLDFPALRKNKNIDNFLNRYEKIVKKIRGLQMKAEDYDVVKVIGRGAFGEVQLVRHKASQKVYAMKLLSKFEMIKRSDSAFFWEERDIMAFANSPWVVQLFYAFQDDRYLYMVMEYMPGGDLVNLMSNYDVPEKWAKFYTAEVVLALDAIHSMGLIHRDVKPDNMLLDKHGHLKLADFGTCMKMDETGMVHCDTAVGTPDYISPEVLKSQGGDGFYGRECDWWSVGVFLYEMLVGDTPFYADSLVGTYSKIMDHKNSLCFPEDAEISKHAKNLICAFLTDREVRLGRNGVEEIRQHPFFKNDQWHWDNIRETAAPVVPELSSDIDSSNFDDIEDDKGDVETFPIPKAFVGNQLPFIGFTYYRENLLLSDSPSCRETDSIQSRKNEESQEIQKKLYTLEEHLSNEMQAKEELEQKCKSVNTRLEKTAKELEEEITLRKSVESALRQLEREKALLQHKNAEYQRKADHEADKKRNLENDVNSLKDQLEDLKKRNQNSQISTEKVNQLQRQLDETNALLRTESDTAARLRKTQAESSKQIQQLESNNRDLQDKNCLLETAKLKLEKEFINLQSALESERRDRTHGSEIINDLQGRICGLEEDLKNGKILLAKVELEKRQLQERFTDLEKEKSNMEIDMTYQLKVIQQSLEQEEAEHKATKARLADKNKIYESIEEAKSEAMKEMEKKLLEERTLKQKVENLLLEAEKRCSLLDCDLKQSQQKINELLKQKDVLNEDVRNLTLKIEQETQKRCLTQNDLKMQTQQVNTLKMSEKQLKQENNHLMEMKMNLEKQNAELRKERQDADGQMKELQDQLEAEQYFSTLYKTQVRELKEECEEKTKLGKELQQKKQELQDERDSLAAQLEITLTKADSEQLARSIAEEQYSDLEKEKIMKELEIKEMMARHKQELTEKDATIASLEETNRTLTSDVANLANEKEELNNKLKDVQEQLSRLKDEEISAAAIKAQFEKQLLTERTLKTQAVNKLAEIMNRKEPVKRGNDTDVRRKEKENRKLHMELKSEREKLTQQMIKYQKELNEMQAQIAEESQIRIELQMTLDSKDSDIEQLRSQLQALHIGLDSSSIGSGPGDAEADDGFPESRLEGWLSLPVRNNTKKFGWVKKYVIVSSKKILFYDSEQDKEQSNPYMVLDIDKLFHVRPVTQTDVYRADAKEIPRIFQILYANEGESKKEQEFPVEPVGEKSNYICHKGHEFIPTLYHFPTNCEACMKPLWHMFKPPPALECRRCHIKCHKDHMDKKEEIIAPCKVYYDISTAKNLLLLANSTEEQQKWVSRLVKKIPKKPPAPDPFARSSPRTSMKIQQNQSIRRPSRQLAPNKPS
Observable: inhibition at 1 µM
The answer should read as a number with its unit following.

Consider the molecule COc1ccc(CN2C3CC2CN(c2ccc(-c4cc(OCC(C)(C)O)cn5ncc(C#N)c45)cn2)C3)cn1 tested on UniProt O75116; state its inhibition at 1 µM.
-0.275%

Consider the molecule O=C(Nc1cnn2ccc(N3CCC[C@@H]3c3cc(F)ccc3F)nc12)N1CC[C@H](O)C1 tested on UniProt O75116; state its inhibition at 1 µM.
-3.33%

Consider the molecule CO[C@]1(C(=O)N[C@@H](C)c2ccc(-n3cc(F)cn3)nc2)CC[C@H](c2nc(C)cc(Nc3cc(C)[nH]n3)n2)CC1 tested on UniProt O75116; state its inhibition at 1 µM.
1.29%

---

target: panel of 255 wild-type kinases (Homo sapiens, UniProt P06241); assay: Kinase panel profiling at 1 µmol/L (MSA or IMAP), percentage inhibition; assay type: biochemical; settings: kinase FYN [isoform a]; 1 µmol/L single concentration; read-out: %-inhibition at 1 µmol/L, FYN [isoform a]
Sequence (P06241 whole entry, canonical isoform): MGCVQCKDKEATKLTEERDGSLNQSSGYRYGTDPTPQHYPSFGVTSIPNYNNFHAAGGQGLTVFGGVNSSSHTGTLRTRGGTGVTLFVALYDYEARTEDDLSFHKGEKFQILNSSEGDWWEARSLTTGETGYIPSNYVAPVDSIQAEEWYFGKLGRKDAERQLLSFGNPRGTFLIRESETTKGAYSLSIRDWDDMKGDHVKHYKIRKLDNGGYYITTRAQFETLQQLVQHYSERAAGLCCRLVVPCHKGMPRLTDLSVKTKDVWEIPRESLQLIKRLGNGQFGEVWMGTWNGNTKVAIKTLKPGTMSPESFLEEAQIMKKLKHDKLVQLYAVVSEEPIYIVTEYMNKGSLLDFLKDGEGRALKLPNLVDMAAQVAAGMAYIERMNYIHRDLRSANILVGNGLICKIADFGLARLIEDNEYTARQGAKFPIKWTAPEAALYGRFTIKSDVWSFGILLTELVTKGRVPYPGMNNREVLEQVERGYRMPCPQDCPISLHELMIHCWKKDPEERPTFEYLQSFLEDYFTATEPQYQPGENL
Field: inhibition at 1 µM. Provide a value for each of the molecules that follow.
Express your answer in %, writing the number without its unit.

Give recorded inhibition at 1 µM. FC(F)(F)c1ccc(CNc2ccc(Cc3c[nH]c4ncc(Cl)cc34)cn2)cn1
-9

Give recorded inhibition at 1 µM. C[C@H](Nc1ncnc2nc[nH]c12)c1cc2cccc(Cl)c2c(=O)n1-c1ccccc1
0.67

Give recorded inhibition at 1 µM. CN1CCN(c2ccc(C(=O)Nc3n[nH]c4ccc(Cc5cc(F)cc(F)c5)cc34)c(NC3CCOCC3)c2)CC1
96

Give recorded inhibition at 1 µM. Cc1cc(Nc2ncnc3ccc(NC4=NC(C)(C)CO4)cc23)ccc1Oc1ccn2ncnc2c1
2.29

Give recorded inhibition at 1 µM. Cn1cnc2c(F)c(Nc3ccc(Br)cc3Cl)c(C(=O)NOCCO)cc21
-3.52

Give recorded inhibition at 1 µM. CCn1c(=O)c(-c2cc(NC(=O)Nc3ccccc3)c(F)cc2Br)cc2cnc(NC)cc21
23

Give recorded inhibition at 1 µM. COc1cc2ncnc(Nc3ccc(F)c(Cl)c3)c2cc1NC(=O)/C=C/CN1CCCCC1
32

Give recorded inhibition at 1 µM. O=C(Nc1cnn2ccc(N3CCC[C@@H]3c3cc(F)ccc3F)nc12)N1CC[C@H](O)C1
1.82

Give recorded inhibition at 1 µM. Cn1cc(-c2cc3c(N4CCN(c5ncc([C@@](C)(N)c6ccc(F)cc6)cn5)CC4)ncnn3c2)cn1
57

Give recorded inhibition at 1 µM. CCN1CCN(c2ccc(Nc3cc(N(C)C(=O)Nc4c(Cl)c(OC)cc(OC)c4Cl)ncn3)cc2)CC1
40

Give recorded inhibition at 1 µM. CCc1nc(C(N)=O)c(Nc2ccc(N3CCC(N4CCN(C)CC4)CC3)c(OC)c2)nc1NC1CCOCC1
84

---

system: 134 cancer cell lines; test: Cell viability assay (ATPlite, 72 hours), IC50 on cancer cell line panel; settings: Homo sapiens, NCCIT, read-out: IC50 in cell proliferation assay
Observable: IC50

Give recorded IC50. C=CC(=O)N1CCC[C@@H](n2nc(-c3ccc(Oc4ccccc4)cc3)c3c(N)ncnc32)C1
5.1 µM

Give recorded IC50. C[C@H]1Oc2cc(cnc2N)-c2c(nn(C)c2C#N)CN(C)C(=O)c2ccc(F)cc21
> 31.6 µM

---

system: 134 cancer cell lines; experiment: Cell viability assay (ATPlite, 72 hours), IC50 on cancer cell line panel; details: Homo sapiens, DU-145, read-out: IC50 in cell proliferation assay
Observable: IC50 (µM)
Express your answer in µM, writing the number without its unit.

Consider the compound CCn1c(=O)c(-c2cc(NC(=O)Nc3ccccc3)c(F)cc2Br)cc2cnc(NC)cc21 tested on 134 cancer cell lines; state its IC50.
1.97

Consider the compound C=CC(=O)N1CCC[C@@H](n2nc(-c3ccc(Oc4ccccc4)cc3)c3c(N)ncnc32)C1 tested on 134 cancer cell lines; state its IC50.
0.148

Consider the compound CCN1C(=O)N(c2c(F)c(OC)cc(OC)c2F)Cc2cnc3[nH]c(CN4CCOCC4)cc3c21 tested on 134 cancer cell lines; state its IC50.
1.6

Consider the compound Cn1cc(-c2cc3c(N4CCN(c5ncc([C@@](C)(N)c6ccc(F)cc6)cn5)CC4)ncnn3c2)cn1 tested on 134 cancer cell lines; state its IC50.
9.13

---

Field: inhibition at 1 µM. Provide a value for each of the compounds that follow.
target: panel of 255 wild-type kinases (Homo sapiens, UniProt Q5VT25); assay: Kinase panel profiling at 1 µmol/L (MSA or IMAP), percentage inhibition; type: biochemical; details: MRCKα; 1 µmol/L single concentration; read-out: %-inhibition, MRCKα
Sequence (Q5VT25 whole entry): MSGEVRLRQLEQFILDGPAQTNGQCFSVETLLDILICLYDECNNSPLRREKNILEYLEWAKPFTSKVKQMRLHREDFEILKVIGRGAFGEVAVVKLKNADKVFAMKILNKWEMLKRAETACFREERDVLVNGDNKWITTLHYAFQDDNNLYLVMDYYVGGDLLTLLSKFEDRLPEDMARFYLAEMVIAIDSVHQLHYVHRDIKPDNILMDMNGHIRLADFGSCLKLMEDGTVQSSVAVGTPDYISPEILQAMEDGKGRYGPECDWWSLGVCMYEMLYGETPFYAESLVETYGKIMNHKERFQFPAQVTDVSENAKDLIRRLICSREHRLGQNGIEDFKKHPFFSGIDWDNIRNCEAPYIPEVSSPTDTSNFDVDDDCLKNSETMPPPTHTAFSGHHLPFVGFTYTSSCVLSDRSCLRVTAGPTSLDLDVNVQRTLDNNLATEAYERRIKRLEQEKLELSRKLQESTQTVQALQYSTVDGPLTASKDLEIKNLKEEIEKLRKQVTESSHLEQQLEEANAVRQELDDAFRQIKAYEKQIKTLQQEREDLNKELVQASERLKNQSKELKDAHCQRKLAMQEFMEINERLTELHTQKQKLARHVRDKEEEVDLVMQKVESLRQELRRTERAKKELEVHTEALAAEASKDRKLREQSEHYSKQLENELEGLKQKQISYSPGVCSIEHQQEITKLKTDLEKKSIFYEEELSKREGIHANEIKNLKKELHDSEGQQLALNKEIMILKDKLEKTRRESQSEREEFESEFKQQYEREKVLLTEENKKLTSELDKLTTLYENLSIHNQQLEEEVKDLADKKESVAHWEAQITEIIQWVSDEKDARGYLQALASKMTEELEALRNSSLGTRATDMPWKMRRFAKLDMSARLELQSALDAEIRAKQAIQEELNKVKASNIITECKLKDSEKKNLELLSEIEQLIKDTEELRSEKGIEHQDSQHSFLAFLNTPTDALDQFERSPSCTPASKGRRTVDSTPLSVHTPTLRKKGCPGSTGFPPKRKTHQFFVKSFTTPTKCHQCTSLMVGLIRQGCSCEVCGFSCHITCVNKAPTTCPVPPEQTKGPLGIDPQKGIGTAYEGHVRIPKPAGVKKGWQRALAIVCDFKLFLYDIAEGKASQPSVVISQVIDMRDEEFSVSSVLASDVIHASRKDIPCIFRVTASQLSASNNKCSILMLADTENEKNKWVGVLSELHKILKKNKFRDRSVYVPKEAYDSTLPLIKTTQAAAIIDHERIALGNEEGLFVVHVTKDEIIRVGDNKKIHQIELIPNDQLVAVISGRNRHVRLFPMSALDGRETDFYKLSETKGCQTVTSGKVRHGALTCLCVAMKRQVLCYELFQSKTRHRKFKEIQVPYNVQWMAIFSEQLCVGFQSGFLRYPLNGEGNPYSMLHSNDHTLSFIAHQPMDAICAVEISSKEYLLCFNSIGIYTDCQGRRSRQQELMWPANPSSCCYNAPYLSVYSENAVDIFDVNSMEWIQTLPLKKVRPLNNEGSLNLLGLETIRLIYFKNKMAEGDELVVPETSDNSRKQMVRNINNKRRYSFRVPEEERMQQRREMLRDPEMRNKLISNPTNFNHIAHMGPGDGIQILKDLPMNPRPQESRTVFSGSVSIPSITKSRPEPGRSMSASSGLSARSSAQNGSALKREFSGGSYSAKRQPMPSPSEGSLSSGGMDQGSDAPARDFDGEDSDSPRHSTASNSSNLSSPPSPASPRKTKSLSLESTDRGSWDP
Express your answer in %, writing the number without its unit.

Give recorded inhibition at 1 µM. COC(=O)N[C@@H](C)CNc1nccc(-c2cn(C(C)C)nc2-c2cc(Cl)cc(NS(C)(=O)=O)c2F)n1 [encorafenib]
0.0684

Give recorded inhibition at 1 µM. CCN1CCN(c2ccc(Nc3cc(N(C)C(=O)Nc4c(Cl)c(OC)cc(OC)c4Cl)ncn3)cc2)CC1 [infigratinib]
0.933

Give recorded inhibition at 1 µM. C[C@H](Nc1ncnc2nc[nH]c12)c1cc2cccc(Cl)c2c(=O)n1-c1ccccc1 [duvelisib]
-3.44

---

test system: 134 cancer cell lines; test: Cell viability assay (ATPlite, 72 hours), IC50 on cancer cell line panel; settings: Homo sapiens, SW837, read-out: IC50 in cell proliferation assay
Observable: pIC50
Reminder that pIC50 means the negative base-10 logarithm of the concentration expressed in mol/L.

Give recorded pIC50. CCN1C(=O)N(c2c(F)c(OC)cc(OC)c2F)Cc2cnc3[nH]c(CN4CCOCC4)cc3c21 [pemigatinib]
5.21

---

target: UniProtKB P00533; assay: Kinase panel profiling at 1 µmol/L (MSA or IMAP), percentage inhibition; type: biochemical; details: kinase EGFR; 1 µmol/L single concentration; read-out: %-inhibition at 1 µmol/L, EGFR
Observable: inhibition at 1 µM
The answer should read as a number with its unit following.

Give recorded inhibition at 1 µM. O=C(Nc1cnn2ccc(N3CCC[C@@H]3c3cc(F)ccc3F)nc12)N1CC[C@H](O)C1 [larotrectinib]
5%

Give recorded inhibition at 1 µM. C[C@H]1Oc2cc(cnc2N)-c2c(nn(C)c2C#N)CN(C)C(=O)c2ccc(F)cc21 [lorlatinib]
9.49%

Give recorded inhibition at 1 µM. Cn1cc(-c2cc3c(N4CCN(c5ncc([C@@](C)(N)c6ccc(F)cc6)cn5)CC4)ncnn3c2)cn1 [avapritinib]
25%

Give recorded inhibition at 1 µM. COc1cc2ncnc(Nc3ccc(F)c(Cl)c3)c2cc1NC(=O)/C=C/CN1CCCCC1 [dacomitinib]
103%

Give recorded inhibition at 1 µM. CCN1C(=O)N(c2c(F)c(OC)cc(OC)c2F)Cc2cnc3[nH]c(CN4CCOCC4)cc3c21 [pemigatinib]
-2%

Give recorded inhibition at 1 µM. Cc1cc(Nc2ncnc3ccc(NC4=NC(C)(C)CO4)cc23)ccc1Oc1ccn2ncnc2c1 [tucatinib]
95%

Give recorded inhibition at 1 µM. CO[C@]1(C(=O)N[C@@H](C)c2ccc(-n3cc(F)cn3)nc2)CC[C@H](c2nc(C)cc(Nc3cc(C)[nH]n3)n2)CC1 [pralsetinib]
48%

---

biological target: panel of 255 wild-type kinases (Homo sapiens, UniProt Q96SB4); experiment: Kinase panel profiling at 1 µmol/L (MSA or IMAP), percentage inhibition; assay type: biochemical; settings: kinase SRPK1; 1 µmol/L single concentration; read-out: %-inhibition at 1 µmol/L, SRPK1
Field: inhibition at 1 µM. Provide a value for each of the molecules that follow.
Express your answer in %, writing the number without its unit.

Give recorded inhibition at 1 µM. Cc1cc(Nc2ncnc3ccc(NC4=NC(C)(C)CO4)cc23)ccc1Oc1ccn2ncnc2c1
-3

Give recorded inhibition at 1 µM. CCN1C(=O)N(c2c(F)c(OC)cc(OC)c2F)Cc2cnc3[nH]c(CN4CCOCC4)cc3c21
-12

Give recorded inhibition at 1 µM. C[C@H]1Oc2cc(cnc2N)-c2c(nn(C)c2C#N)CN(C)C(=O)c2ccc(F)cc21
5.65

Give recorded inhibition at 1 µM. C[C@H](Nc1ncnc2nc[nH]c12)c1cc2cccc(Cl)c2c(=O)n1-c1ccccc1
4

---

target: UniProt:Q13464; experiment: Kinase panel profiling at 1 µmol/L (MSA or IMAP), percentage inhibition; type: biochemical; settings: kinase ROCK1; 1 µmol/L single concentration; read-out: %-inhibition at 1 µmol/L, ROCK1
Sequence (Q13464 whole entry): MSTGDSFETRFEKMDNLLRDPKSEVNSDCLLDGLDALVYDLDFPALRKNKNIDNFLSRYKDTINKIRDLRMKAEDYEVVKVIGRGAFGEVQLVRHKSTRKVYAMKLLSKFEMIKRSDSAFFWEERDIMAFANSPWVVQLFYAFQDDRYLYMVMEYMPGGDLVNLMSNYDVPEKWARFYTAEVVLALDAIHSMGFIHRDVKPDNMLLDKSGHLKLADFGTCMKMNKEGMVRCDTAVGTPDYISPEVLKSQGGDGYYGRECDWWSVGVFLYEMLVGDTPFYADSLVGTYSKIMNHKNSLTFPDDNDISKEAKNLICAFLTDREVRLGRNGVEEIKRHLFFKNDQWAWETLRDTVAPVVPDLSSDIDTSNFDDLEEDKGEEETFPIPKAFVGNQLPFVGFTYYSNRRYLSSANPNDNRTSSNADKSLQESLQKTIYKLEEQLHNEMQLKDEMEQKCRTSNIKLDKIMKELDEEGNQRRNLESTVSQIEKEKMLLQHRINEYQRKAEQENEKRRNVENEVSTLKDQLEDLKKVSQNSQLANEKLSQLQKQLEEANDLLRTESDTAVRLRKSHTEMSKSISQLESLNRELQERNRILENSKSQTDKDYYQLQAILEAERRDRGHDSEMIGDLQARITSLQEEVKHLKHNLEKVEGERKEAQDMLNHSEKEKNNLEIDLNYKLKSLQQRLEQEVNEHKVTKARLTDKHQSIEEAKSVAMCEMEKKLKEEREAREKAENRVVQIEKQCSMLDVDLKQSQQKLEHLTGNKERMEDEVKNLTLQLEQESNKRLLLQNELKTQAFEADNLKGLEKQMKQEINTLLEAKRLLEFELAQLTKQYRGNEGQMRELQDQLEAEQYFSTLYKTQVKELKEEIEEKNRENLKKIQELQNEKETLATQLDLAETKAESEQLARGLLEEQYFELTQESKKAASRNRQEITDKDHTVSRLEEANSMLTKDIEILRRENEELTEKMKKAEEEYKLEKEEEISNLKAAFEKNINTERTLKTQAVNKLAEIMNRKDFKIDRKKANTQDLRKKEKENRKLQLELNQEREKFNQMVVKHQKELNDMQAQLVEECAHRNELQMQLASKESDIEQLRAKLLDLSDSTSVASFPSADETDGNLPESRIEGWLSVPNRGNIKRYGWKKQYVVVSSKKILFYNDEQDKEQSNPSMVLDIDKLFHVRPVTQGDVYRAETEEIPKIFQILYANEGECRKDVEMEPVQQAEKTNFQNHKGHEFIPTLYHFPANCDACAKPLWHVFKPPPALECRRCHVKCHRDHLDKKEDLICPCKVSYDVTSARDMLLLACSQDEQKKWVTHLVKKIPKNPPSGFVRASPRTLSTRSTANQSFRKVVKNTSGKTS
Observable: inhibition at 1 µM

Consider the compound C[C@H]1Oc2cc(cnc2N)-c2c(nn(C)c2C#N)CN(C)C(=O)c2ccc(F)cc21 tested on UniProt:Q13464; state its inhibition at 1 µM.
3.64%

Consider the compound Cc1cc(Nc2ncnc3ccc(NC4=NC(C)(C)CO4)cc23)ccc1Oc1ccn2ncnc2c1 tested on UniProt:Q13464; state its inhibition at 1 µM.
-0.767%

Consider the compound COC(=O)N[C@@H](C)CNc1nccc(-c2cn(C(C)C)nc2-c2cc(Cl)cc(NS(C)(=O)=O)c2F)n1 tested on UniProt:Q13464; state its inhibition at 1 µM.
0.403%

Consider the compound CO[C@]1(C(=O)N[C@@H](C)c2ccc(-n3cc(F)cn3)nc2)CC[C@H](c2nc(C)cc(Nc3cc(C)[nH]n3)n2)CC1 tested on UniProt:Q13464; state its inhibition at 1 µM.
3.43%

Consider the compound CN1CCN(c2ccc(C(=O)Nc3n[nH]c4ccc(Cc5cc(F)cc(F)c5)cc34)c(NC3CCOCC3)c2)CC1 tested on UniProt:Q13464; state its inhibition at 1 µM.
4.51%

Consider the compound CCN1CCN(c2ccc(Nc3cc(N(C)C(=O)Nc4c(Cl)c(OC)cc(OC)c4Cl)ncn3)cc2)CC1 tested on UniProt:Q13464; state its inhibition at 1 µM.
0.396%

Consider the compound Cn1cc(-c2cc3c(N4CCN(c5ncc([C@@](C)(N)c6ccc(F)cc6)cn5)CC4)ncnn3c2)cn1 tested on UniProt:Q13464; state its inhibition at 1 µM.
2%
